# assay system: T1, Human syndecan-1 (CD138) on the cell surface (human, UniProt P18827 23-310)
# T1 construct: Endogenous on H929, KMS-11 and RT112/84 cells or transfected into Expi293 cells; also called human CD138; hCD138
# T1 sequence: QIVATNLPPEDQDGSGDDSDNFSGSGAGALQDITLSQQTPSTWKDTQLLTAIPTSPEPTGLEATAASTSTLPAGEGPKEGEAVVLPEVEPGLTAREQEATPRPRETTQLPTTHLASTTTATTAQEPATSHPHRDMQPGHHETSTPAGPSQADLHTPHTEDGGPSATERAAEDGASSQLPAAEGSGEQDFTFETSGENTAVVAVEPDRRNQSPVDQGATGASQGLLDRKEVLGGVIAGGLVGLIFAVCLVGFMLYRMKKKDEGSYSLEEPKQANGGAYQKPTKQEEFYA
# assay: FACS on RT-112 cells, four parameter fit
measurement type: EC50
In your response, the unit should come after the numeric value.

**Q:** I would be grateful if you could share the reported EC50 for F6 f1ks-rep (antibody, V domains shown, Humanized F12P16F6 expressed as whole antibody with human constant regions (kappa light chain)) VH: QVQLQQSGAEVVKPGASVKLSCKASGYTFTSYYLYWVKKAPGQGLDWIGEIYPRSGGTNINEKFLSRVTLTADTSTSTAYMDLSSLTSEDTAVYYCTRSLLYWGQGTTLTVSS VL: DVVMTQTPLSLSVTPGQPASISCKSSQSLLASDGKTYLNWLLQRPGQSPKRLIYLVSKLDSGVPNRFSGSGSGTDFTLQISRVEAEDVGLYYCWQGAHFPFTFGSGTKLEIKR .
**A:** 2.73 nM
